The values you see were collected from ChEMBL document CHEMBL3885881.

- Species on record: Rattus norvegicus
- experiment: DrugMatrix - Regimen: Daily Repeat
- Assay type: toxicity, organism-based, Sprague-Dawley
- Design: regimen Daily Repeat, gender Male, age 6-8 weeks
- measurement-conditions: in vivo, po, 0 mg/kg, 120 h, tissue Plasma, route oral GAVAGE, dose level Control, time 5 day, vehicle .5 % CMC
outcome-measure: ALANINE AMINOTRANSFERASE (u/L)

CC(=O)Nc1ccc2c(c1)Cc1ccccc1-2 [2-ACETYLAMINOFLUORENE] ... 49.17
NC(=O)CN1CCCC1=O ... 54.5
CC(C)Cc1ccc([C@H](C)C(=O)O)cc1 [DEXIBUPROFEN] ... 42.17
CC(C)(C#N)c1cc(Cn2cncn2)cc(C(C)(C)C#N)c1 [ANASTROZOLE] ... 45.17
O=C(O)CCc1nc(-c2ccccc2)c(-c2ccccc2)o1 [OXAPROZIN] ... 54.17
CC(C)NCC(O)COc1ccc(CC(N)=O)cc1 (centres undefined) [ATENOLOL] ... 41.83
NC(=O)NC(=O)Cc1ccccc1 [PHENACEMIDE] ... 37.17
COc1cc(/C=C/C(=O)O)ccc1O [FERULATE] ... 43.33
Nc1ccc(C(=O)O)c(O)c1 [AMINOSALICYLIC ACID] ... 46
CN(C)CCOC(c1ccccc1)c1ccccc1.Cn1c(=O)c2[nH]c(Cl)nc2n(C)c1=O [DIMENHYDRINATE] ... 58.67
CCN1CCCC1CNC(=O)c1cc(S(N)(=O)=O)ccc1OC (centres undefined) [SULPIRIDE] ... 54.17
CCN(CC)CCNC(=O)c1cc(Cl)c(N)cc1OC [METOCLOPRAMIDE] ... 36.33
Cl.NC[C@H]1CC[C@H](C(=O)Oc2ccc(CCC(=O)O)cc2)CC1 [CETRAXATE HYDROCHLORIDE] ... 43.33
NCC(CC(=O)O)c1ccc(Cl)cc1 (centres undefined) [BACLOFEN] ... 49.17
CN(C)CCC=C1c2ccccc2COc2ccccc21 [DOXEPIN] ... 41.83
CCOc1cc(N)c(Cl)cc1C(=O)NCC1CN(Cc2ccc(F)cc2)CCO1 (centres undefined) [MOSAPRIDE] ... 49.17
COc1ccc(Cl)cc1C(=O)NCCc1ccc(S(=O)(=O)NC(=O)NC2CCCCC2)cc1 [GLYBURIDE] ... 46
CCN1C[C@]2(COC)[C@H](O)C[C@H](OC)[C@@]34[C@@H]5C[C@@]6(O)[C@H](OC(=O)c7ccccc7)[C@@H]5[C@@](OC(C)=O)([C@@H]([C@H](OC)[C@H]23)[C@@H]14)[C@@H](O)[C@@H]6OC [ACONITINE] ... 38
CCN1CCN(c2cc3c(cc2F)c(=O)c(C(=O)O)cn3C2CC2)CC1 [ENROFLOXACIN] ... 36.33

----------
- Species: Rattus norvegicus
- experiment: DrugMatrix - Regimen: Daily Repeat
- Type: toxicity, organism-based, Sprague-Dawley
- Set-up: regimen Daily Repeat, gender Male, age 6-8 weeks
- measurement-conditions: in vivo, po, 1500 mg/kg, 120 h, tissue Blood, route oral GAVAGE, dose level High, time 5 day, vehicle .5 % CMC
outcome-measure: MEAN CORPUSCULAR HEMOGLOBIN CONCENTRATION (G/DL)

CC[C@H]1OC(=O)[C@H](C)[C@@H](O[C@H]2C[C@@](C)(OC)[C@@H](O)[C@H](C)O2)[C@H](C)[C@@H](O[C@@H]2O[C@H](C)C[C@H](N(C)C)[C@H]2O)[C@](C)(O)C[C@@H](C)C(=O)[C@H](C)[C@@H](O)[C@]1(C)O ... 40.13
COc1cc(/C=C/C(=O)O)ccc1O [FERULATE] ... 37.67
Cc1ccc(S(=O)(=O)NC(=O)NN2CCCCCC2)cc1 [TOLAZAMIDE] ... 37.47
O=C(O)CCc1nc(-c2ccccc2)c(-c2ccccc2)o1 ... 40.7
COc1ccc(Cl)cc1C(=O)NCCc1ccc(S(=O)(=O)NC(=O)NC2CCCCC2)cc1 [GLYBURIDE] ... 39.8

----------
- Organism: Rattus norvegicus
- experiment: DrugMatrix - Regimen: Daily Repeat
- Type: toxicity, organism-based, Sprague-Dawley
- Design: regimen Daily Repeat, gender Male, age 6-8 weeks
- measurement-conditions: in vivo, po, 1500 mg/kg, 120 h, tissue Blood, route oral GAVAGE, dose level High, time 5 day, vehicle .5 % CMC
One threshold, 20 x10E3/uL, splits the recorded LEUKOCYTE COUNT values: lower ones are 1, equal or higher ones are 0.

COc1ccc(Cl)cc1C(=O)NCCc1ccc(S(=O)(=O)NC(=O)NC2CCCCC2)cc1 [GLYBURIDE] ... 1
Cc1ccc(S(=O)(=O)NC(=O)NN2CCCCCC2)cc1 [TOLAZAMIDE] ... 1
O=C(O)CCc1nc(-c2ccccc2)c(-c2ccccc2)o1 ... 0
CC[C@H]1OC(=O)[C@H](C)[C@@H](O[C@H]2C[C@@](C)(OC)[C@@H](O)[C@H](C)O2)[C@H](C)[C@@H](O[C@@H]2O[C@H](C)C[C@H](N(C)C)[C@H]2O)[C@](C)(O)C[C@@H](C)C(=O)[C@H](C)[C@@H](O)[C@]1(C)O ... 1

----------
- Species: Rattus norvegicus
- experiment: DrugMatrix - Regimen: Daily Repeat
- Format: toxicity, organism-based, Sprague-Dawley
- Set-up: regimen Daily Repeat, gender Male, age 6-8 weeks
- measurement-conditions: in vivo, po, 1500 mg/kg, 72 h, tissue Plasma, route oral GAVAGE, dose level High, time 3 day, vehicle .5 % CMC
Quick list: CREATININE per entry.
outcome-measure: CREATININE (mg/dL)

O=C(O)CCc1nc(-c2ccccc2)c(-c2ccccc2)o1 [OXAPROZIN] ... 0.24
CC[C@H]1OC(=O)[C@H](C)[C@@H](O[C@H]2C[C@@](C)(OC)[C@@H](O)[C@H](C)O2)[C@H](C)[C@@H](O[C@@H]2O[C@H](C)C[C@H](N(C)C)[C@H]2O)[C@](C)(O)C[C@@H](C)C(=O)[C@H](C)[C@@H](O)[C@]1(C)O [ERYTHROMYCIN] ... 0.16
COc1cc(/C=C/C(=O)O)ccc1O [FERULATE] ... 0.15
Cc1ccc(S(=O)(=O)NC(=O)NN2CCCCCC2)cc1 [TOLAZAMIDE] ... 0.18
COc1ccc(Cl)cc1C(=O)NCCc1ccc(S(=O)(=O)NC(=O)NC2CCCCC2)cc1 [GLYBURIDE] ... 0.4

----------
- Species: Rattus norvegicus
- experiment: DrugMatrix - Regimen: Daily Repeat
- Format: toxicity, organism-based, Sprague-Dawley
- Parameters: regimen Daily Repeat, gender Male, age 6-8 weeks
- measurement-conditions: in vivo, iv, 0 mg/kg, 72 h, tissue Blood, dose level Control, time 3 day, vehicle 100 % SALINE
outcome-measure: HEMOGLOBIN (G/DL)

CC(=O)[C@]1(O)Cc2c(O)c3c(c(O)c2[C@@H](O[C@H]2C[C@H](N)[C@H](O)[C@H](C)O2)C1)C(=O)c1ccccc1C3=O ... 12.65
CO[C@@]12[C@H](COC(N)=O)C3=C(C(=O)C(C)=C(N)C3=O)N1C[C@@H]1N[C@@H]12 ... 13.17
Cc1c(N)nc([C@H](CC(N)=O)NC[C@H](N)C(N)=O)nc1C(=O)N[C@H](C(=O)N[C@H](C)[C@@H](O)[C@H](C)C(=O)N[C@H](C(=O)NCCc1nc(-c2nc(C(=O)NCCC[S+](C)C)cs2)cs1)[C@@H](C)O)[C@@H](O[C@@H]1O[C@@H](CO)[C@@H](O)[C@H](O)[C@@H]1O[C@H]1O[C@H](CO)[C@@H](O)[C@H](OC(N)=O)[C@@H]1O)c1c[nH]cn1.[Br-] ... 12.87
COC(=O)C[C@](O)(CCC(C)(C)O)C(=O)O[C@@H]1C(OC)=C[C@]23CCCN2CCc2cc4c(cc2[C@H]13)OCO4 ... 13.6

----------
- Species on record: Rattus norvegicus
- experiment: DrugMatrix - Regimen: Daily Repeat
- Type: toxicity, organism-based, Sprague-Dawley
- Parameters: regimen Daily Repeat, gender Male, age 6-8 weeks
- measurement-conditions: in vivo, po, 0 mg/kg, 120 h, tissue Plasma, route oral GAVAGE, dose level Control, time 5 day, […]
Answer NOT MET if CREATINE PHOSPHOKINASE is under 300 u/L, and MET if it is 300 u/L or more.

CCOC(=O)C1=C(C)NC(C)=C(C(=O)OCC)C1c1ccccc1/C=C/C(=O)OC(C)(C)C ... NOT MET
O=C(O)COC(=O)Cc1ccccc1Nc1c(Cl)cccc1Cl ... NOT MET
Oc1ncnc2[nH]ncc12 ... MET
CO[C@H]1O[C@@H]2O[C@@]3(C)CC[C@H]4[C@H](C)CC[C@@H]([C@H]1C)[C@@]24OO3 ... MET
O=C(Nc1ccc(Cl)c(Cl)c1)c1cc(Cl)cc(Cl)c1O [3,3',4',5-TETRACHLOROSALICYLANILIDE] ... MET
Cc1cccc(C)c1NC(=O)C(C)N (stereo not drawn) [TOCAINIDE] ... NOT MET
CCC(C)(C)C(=O)O[C@H]1C[C@@H](C)C=C2C=C[C@H](C)[C@H](CC[C@@H]3C[C@@H](O)CC(=O)O3)[C@H]21 ... MET
CS(=O)(=O)c1ccc(C2=C(c3ccccc3)C(=O)OC2)cc1 ... NOT MET
COc1ccccc1OCCNCC(O)COc1cccc2[nH]c3ccccc3c12 (stereo not drawn) ... NOT MET
CC#C[C@]1(O)CC[C@H]2[C@@H]3CCC4=CC(=O)CCC4=C3[C@@H](c3ccc(N(C)C)cc3)C[C@@]21C ... MET
COC(=O)Nc1nc2ccc(C(=O)c3ccccc3)cc2[nH]1 ... NOT MET
c1ccc2c(c1)Nc1ccccc1S2 ... NOT MET
